assayed.target: rat B1R (bradykinin receptor 1) (Rattus norvegicus)
Construct: expressed in transfected cells; host or cells: CHO K1 cells
Sequence (P97583 whole entry): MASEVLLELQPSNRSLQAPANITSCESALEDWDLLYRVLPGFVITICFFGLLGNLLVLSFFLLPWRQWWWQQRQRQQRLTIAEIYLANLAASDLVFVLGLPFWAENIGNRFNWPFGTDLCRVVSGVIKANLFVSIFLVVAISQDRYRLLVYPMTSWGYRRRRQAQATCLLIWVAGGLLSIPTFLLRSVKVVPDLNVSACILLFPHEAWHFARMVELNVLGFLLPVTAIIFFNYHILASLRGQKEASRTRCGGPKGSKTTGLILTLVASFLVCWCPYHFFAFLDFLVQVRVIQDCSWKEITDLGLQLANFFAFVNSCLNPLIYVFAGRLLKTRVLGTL
measurement.description: FLIPR Ca2+ assay (Fluo-4) on CHO K1 cells stably transfected with the B1R gene of the rat (rB1R cells): % inhibition at 10 μM / IC50, agonist Des-Arg9-bradykinin
Format: cell-based
experimental.context: CHO-K1, rat B1R
Source text: The agonistic or antagonistic action of substances can be quantified on the bradykinin receptor 1 (B1R) of the human and rat species with ectopically expressing cell lines (CHO K1 cells) and with the aid of a Ca^2+-sensitive dyestuff (Fluo-4) in a fluorescent imaging plate reader (FLIPR). […] The agonistic or antagonistic action of substances can be determined on the bradykinin receptor 1 (B1R) of the human and rat species with the following assay. […]
Record form. Attribute: inhibition at 10 µM. Fill in for each entry.
Please state the figure in %; there is no need to write the unit.

Memo: CC(C)C(=O)N(C)C1CCc2ccc(C(=O)N3CCC4(CC3)CCN(c3ccncc3)CC4)cc21 (centres unmarked) , reported inhibition at 10 µM: 99

Measured inhibition at 10 µM, CN(C(=O)c1ccccc1Cl)C1CCc2ccc(C(=O)N3CCC4(CC3)CCN(c3ccncc3)CC4)cc21 (centres unmarked) : 100

// inhibition at 10 µM value for O=C(NC1CCc2ccc(C(=O)N3CCC4(CCN(Cc5ccc(F)c(F)c5)CC4)C3)cc21)c1cc(C(F)(F)F)ccc1Cl (centres unmarked) : 86

// O=C(Cc1ccccc1Cl)NC1CCc2ccc(C(=O)N3CCC4(CC3)CCN(c3ccncc3)CC4)cc21 (centres unmarked) : inhibition at 10 µM value = 102

Recorded inhibition at 10 µM (compound O=C(NC1CCc2ccc(C(=O)N3CCC4(CCN(CCCc5cccc(F)c5)CC4)C3)cc21)c1cccc(Cl)c1Cl (centres unmarked) ): 99

Short answer for Cn1cncc1CN1CCC2(CC1)CCN(C(=O)c1ccc3c(c1)C(N(C(=O)c1ccccc1Cl)C1CC1)CC3)C2 (centres unmarked) : inhibition at 10 µM was 54

inhibition at 10 µM for Cn1nnc2cc(CN3CCC4(CC3)CCN(C(=O)c3ccc5c(c3)C(NC(=O)c3c(F)cccc3Cl)CC5)C4)ccc21 (centres unmarked) is 99

For O=C(NC1CCc2ccc(C(=O)N3CCC4(CC3)CCN(c3ccncc3)CC4)cc21)c1c(F)cccc1F (centres unmarked) the compound record lists inhibition at 10 µM as 102

###

Kindly supply the reported inhibition at 10 µM values for the records listed here.
assayed.target: rat B1R (bradykinin receptor 1) (Rattus norvegicus)
Construct: expressed in transfected cells; host or cells: CHO K1 cells
measurement.description: FLIPR Ca2+ assay (Fluo-4) on CHO K1 cells stably transfected with the B1R gene of the rat (rB1R cells): % inhibition at 10 μM / IC50, agonist Des-Arg9-bradykinin
Format: cell-based
experimental.context: CHO-K1, rat B1R
State the answer as a number, implicitly in %.

"O=C(N[C@@H]1CCc2ccc(C(=O)N3CCC4(CC3)CCN(c3ccncc3)C4)cc21)c1ccccc1Cl" yielded inhibition at 10 µM of 104

Record summary for "O=C(N[C@@H]1CCc2cc(C(=O)N3CCC4(CC3)CCN(c3ccncc3)CC4)ccc21)c1ccccc1Cl" : reported inhibition at 10 µM = 105

Value of inhibition at 10 µM reported for the compound "O=C(c1ccc2c(c1)[C@H](NC(=O)C1(c3ccccc3Cl)CC1)CC2)N1CCC2(CCN(c3ccncc3)CC2)C1" is 101

The compound listed as O=C(NC1CCc2ccc(C(=O)N3CCC4(CCN(C(=O)Nc5ccc(F)c(Cl)c5)CC4)C3)cc21)c1ccccc1Cl (centres unmarked) shows inhibition at 10 µM equal to 71

In plain terms, CN(C(=O)Nc1ccc(Cl)c(Cl)c1)C1CCc2ccc(C(=O)N3CCC4(CC3)CCN(c3ccncc3)CC4)cc21 (centres unmarked) has a documented inhibition at 10 µM of 75
